Reported MIC90 by item:
- System: Pseudomonas aeruginosa
- test-name: Antibacterial activity against Pseudomonas aeruginosa ATCC 9027 after 24 hrs by broth micro dilution assay
- Format: functional
- protocol-conditions: ATCC 9027, 24 h
Hi! Could you send only the number? It should be in µg/mL, unit omitted.

{"columns": ["smiles", "MIC90 / µg/mL"],
 "data": [
  ["O=C(O)c1cn(C2CC2)c2cc(N3CCNCC3)c(F)cc2c1=O", 1.25],
  ["CCn1cc(-c2nnc3n2N=C(c2ccccc2)CS3)c(=O)c2ccc(C)nc21", 125]
]}

Entry "CCn1cc(-c2nnc(S)n2NC(=O)c2ccccc2)c(=O)c2ccc(C)nc21" — recorded MIC90 = 63

Entry "CCn1cc(-c2nnc(S)n2/N=C/c2ccc(C(C)C)cc2)c(=O)c2ccc(C)nc21" — recorded MIC90 = 16

Entry "CCn1cc(-c2nnc(S)n2/N=C/c2ccc(C(C)(C)C)cc2)c(=O)c2ccc(C)nc21" — recorded MIC90 = 63

Origin of the recorded values: ChEMBL document CHEMBL1821658
